inhibition overview
- Assayed System: Chymotrypsinogen A (Bos taurus) (UniProt P00766)
- Protocol Details: Compound was tested for inhibitory activity against alpha-chymotrypsin at concentration of 10 uM.
Non-standard residues stand in square brackets, D forms with d. Residues, ends and D or L forms follow the SMILES beside them. *: point of attachment. Tos = Cc1ccc(S(=O)(=O)*)cc1; Ms = CS(=O)(=O)*
Respond numerically; units are % and should not be typed.

Lab note: Cc1ccc(S(=O)(=O)N2CCC[C@@H]2C(=O)N[C@H](C=O)Cc2ccccc2)cc1 (Tos-[dP]-Phe-aldehyde) gave inhibition of 12

Continuing:
Lab note: Cc1ccc(S(=O)(=O)N2C[C@H](C#N)CC2C(=O)N[C@H](C=O)Cc2ccccc2)cc1 (single isomer, unassigned) gave inhibition of 6

Lab note: Cc1ccc(S(=O)(=O)N2C[C@H](N=[N+]=[N-])CC2C(=O)N[C@H](C=O)Cc2ccccc2)cc1 (single isomer, unassigned) gave inhibition of 9

Lab note: CS(=O)(=O)N1CCC[C@@H]1C(=O)N[C@H](C=O)Cc1ccccc1 (Ms-[dP]-Phe-aldehyde) gave inhibition of 2

Hey, just so you know, these numbers are from ChEMBL document CHEMBL1130591.
